Data origin: paper PMC4492757

# assayTarget: hFFA2 (Homo sapiens)
# protocolText: yeast FUS1-HIS3 reporter growth assay
measurementLabel: IC50 (nM)

- CN(C(=O)[C@H]1CCCC[C@H]1C(=O)O)c1nc(-c2ccccc2Cl)cs1: 186

----------
# assayTarget: hFFA2 (Homo sapiens, UniProt O15552)
# Sequence (O15552 whole entry): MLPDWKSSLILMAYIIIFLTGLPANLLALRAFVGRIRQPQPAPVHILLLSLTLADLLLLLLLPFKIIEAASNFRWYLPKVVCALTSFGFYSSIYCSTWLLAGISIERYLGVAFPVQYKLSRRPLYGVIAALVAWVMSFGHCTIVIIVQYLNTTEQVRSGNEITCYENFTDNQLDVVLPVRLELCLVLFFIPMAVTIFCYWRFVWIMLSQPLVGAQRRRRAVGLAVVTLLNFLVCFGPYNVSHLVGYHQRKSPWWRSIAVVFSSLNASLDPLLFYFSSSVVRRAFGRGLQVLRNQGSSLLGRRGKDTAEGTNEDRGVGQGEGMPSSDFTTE
# protocolText: LANCE cAMP assay, U2OS cells
measurementLabel: EC50 (µM)

- CC(=O)O [C2, acetate]: 126
